# Test system: KM12
# test: NCI tumour cell line growth inhibition, 48 h
The source made the active and inactive calls. No stated cut-off is given here; in the data, active = GI50 up to about 1.1 µM and inactive = higher.

{"molecule": "CN1CCC2(CC1)C(=O)N(NC(N)=O)C(=O)C2c1ccccc1 (stereo unspecified)", "GI50": "> 100 µM (inactive)"}
{"molecule": "Cc1[nH]n(-c2nc(O)c(C)c(=O)[nH]2)c(=O)c1CCO", "GI50": "> 100 µM (inactive)"}
{"molecule": "Cc1cc(N(CCOS(C)(=O)=O)CCOS(C)(=O)=O)ccc1/C=N/c1ccc(-c2csc(-c3ccccc3)n2)c(Cl)c1", "GI50": "11.2 µM (inactive)"}
{"molecule": "CC1=NCC[N+]1(CCc1ccccc1)Cc1ccccc1 (stereo unspecified)", "GI50": "47.2 µM (inactive)"}
{"molecule": "CC1=CC(C)C/C=C/C2C3OC3(C)C(C)C3C(Cc4c[nH]c5ccccc45)NC(=O)C23C(=O)C=CC(=O)C1O (stereo unspecified)", "GI50": "15.2 µM (inactive)"}
{"molecule": "COc1cc(-c2ccccc2N)c2cccnc2c1OC", "GI50": "6.07 µM (inactive)"}

----------
Listed here are compounds together with their documented GI50.
# Test system: SK-MEL-2
# test: NCI tumour cell line growth inhibition, 48 h
Activity calls are given as the source filed them. No stated cut-off is given here; in the data, active = GI50 up to about 1.1 µM and inactive = higher. Where a SMILES comes first, the peptide text is derived from it. [ ]: non-standard residue; d: D form. The star is where a group is joined. Iva = CC[C](C)(N)C(=O)O; Boc = CC(C)(C)OC(=O)*; X54 = C1CCC(=NO*)C1
measureName: GI50

{"compound": "CCOC(=O)C1(C(=O)OCC)OC(C)=NC1(C(=O)OC)C(=O)OC", "measureName": "GI50", "measuredResult": "> 100 µM (inactive)"}
{"compound": "c1ccc(C2C3=C(CCCC3)Nc3nnnn32)cc1 (centres undefined)", "measureName": "GI50", "measuredResult": "34.4 µM (inactive)"}
{"compound": "COc1cc2c3c(c1OC)-c1ccccc1C(C(OC(C)=O)c1ccccc1)C3N(C)CC2 (centres undefined)", "measureName": "GI50", "measuredResult": "17.2 µM (inactive)"}
{"compound": "C1=CC2SSSC2C1 (centres undefined)", "measureName": "GI50", "measuredResult": "> 100 µM (inactive)"}
{"compound": "CCCCCCCCCCCCCCCC(=O)OCC1OC(n2cc(F)c(=O)[nH]c2=O)C(NC(=O)OCc2ccccc2)C(O)C1O (centres undefined)", "measureName": "GI50", "measuredResult": "16 µM (inactive)"}
{"compound": "C[C@@H](CCO)OC1OC(COC(=O)C(C)(C)C)C(OC(=O)C(C)(C)C)C(OC(=O)C(C)(C)C)C1OC(=O)C(C)(C)C (some centres undefined)", "measureName": "GI50", "measuredResult": "43.6 µM (inactive)"}
{"compound": "CCCCc1ccc(N2C(=O)c3cc([N+](=O)[O-])cnc3S2(=O)=O)cc1", "measureName": "GI50", "measuredResult": "23.3 µM (inactive)"}
{"compound": "CCC(C)(NC(=O)C(C)NC(=O)OC(C)(C)C)C(=O)NC(C)C(=O)NC(C)(CC)C(=O)ON=C1CCCC1 (centres undefined) (Boc-A[Iva]A[Iva]-X54; configuration not given here)", "measureName": "GI50", "measuredResult": "> 100 µM (inactive)"}
{"compound": "COc1ccc(OC)c(/C=C/C(=O)C(C)(C)C)c1", "measureName": "GI50", "measuredResult": "> 10 µM (inactive)"}

----------
# System: NCI-H226
# test: NCI tumour cell line growth inhibition, 48 h
Active and inactive are the calls of the source. No stated cut-off is given here; in the data, active = GI50 up to about 1.1 µM and inactive = higher. *1 amine or outer side, *2 acyl side, *3 side chain or, on linkers, in order; H or OH if unused. Where a SMILES comes first, the peptide text is derived from it. Bridges are numbered along the chain shown (N, C = ends). [ ]: non-standard residue; d: D form. The star is where a group is joined. X36 = O=C(C(CCCCNO[*:3])N[*:1])[*:2]; Fmoc = O=C(OCC1c2ccccc2-c2ccccc21)*
Each entry below lists one item and its recorded GI50 value.
measureName: GI50

{"molecule": "NC(=O)CNC(=O)C1CCCN1C(=O)C1CCCCNOC(=O)CCC(NC(=O)OCC2c3ccccc3-c3ccccc32)C(=O)NC(Cc2c[nH]c3ccccc23)C(=O)N1 (centres undefined) (Fmoc-EW[X36]PG-NH2; ester 1-3; configuration not given here)", "measuredResult": "> 100 µM (inactive)"}
{"molecule": "CC1(C)CC2(C)ON=C(c3ccccc3)N2c2ccccc2N1 (centres undefined)", "measuredResult": "17.3 µM (inactive)"}
{"molecule": "CNC(=O)c1ccccc1[S+]1c2cccc3cccc(c23)C(=O)N1C (centres undefined)", "measuredResult": "> 100 µM (inactive)"}
{"molecule": "COc1cc(C=C2C(=O)NC(=S)NC2=O)cc(OC)c1OC", "measuredResult": "> 100 µM (inactive)"}

----------
Measured GI50 accompanies every entry in the list below.
# Tested on: SR
# test: NCI tumour cell line growth inhibition, 48 h
Active and inactive are the calls of the source. Rule as the data show it: active = GI50 up to about 1.1 µM and inactive = higher.

{"compound": "CCOC(=O)[C@H]1Nc2ccc([N+](=O)[O-])cc2C2c3ccccc3CC21 (stereo partly specified)", "GI50": "9.93 µM (inactive)"}
{"compound": "O=C(O)c1nc2ccc(C(F)(F)F)cc2nc1NCc1ccc(Cl)c(Cl)c1", "GI50": "15.6 µM (inactive)"}
{"compound": "CCOC(=O)N1N(c2ccccc2)C(=O)C1(c1ccccc1)c1ccccc1", "GI50": "87.5 µM (inactive)"}
{"compound": "O=C1CCC2(O)c3ccccc3C2Cc2ccccc21 (stereo unspecified)", "GI50": "> 100 µM (inactive)"}
{"compound": "COC(=O)C(CCSc1ccccc1)C(=O)OC", "GI50": "> 100 µM (inactive)"}
{"compound": "CCOC(=O)C1=C(Nc2ccccc2)SC/C1=N\\NC(=O)Cc1ccccc1", "GI50": "> 100 µM (inactive)"}

----------
# System: SNB-75
# test: NCI tumour cell line growth inhibition, 48 h
Activity calls are given as the source filed them. Rule as the data show it: active = GI50 up to about 1.1 µM and inactive = higher.
Labels: yes (1) (active), no (0) (inactive)

{"structureAsSmiles": "CCCNC(=O)c1cc(NC(=O)c2cc(NC(=O)/C=C/c3ccccc3)c(OC)c(OC)c2)c(OC)c(OC)c1", "assignedClass": "no (0)"}
{"structureAsSmiles": "CC(CCC#N)(CCC#N)C(=O)CC(O)(C(F)(F)F)C(F)(F)F", "assignedClass": "no (0)"}
{"structureAsSmiles": "COc1ccc(C(=C[N+](=O)[O-])c2ccc(OC)cc2)cc1", "assignedClass": "no (0)"}
{"structureAsSmiles": "COc1ccc2c(=O)c([Se]c3coc4cc(OC)ccc4c3=O)coc2c1", "assignedClass": "no (0)"}
{"structureAsSmiles": "CCOC(=O)C(=O)CC(=O)C1=C(c2ccccc2OC)CC(c2cccs2)=CC1=O", "assignedClass": "yes (1)"}
{"structureAsSmiles": "O=C(O)c1nc2ccc(C(F)(F)F)cc2nc1Nc1ccc(Cl)c(Cl)c1", "assignedClass": "no (0)"}
{"structureAsSmiles": "CCOC(=O)NC(=O)c1cn(CC(=O)NCC(=O)NCC(=O)NCCCN2CCN(CCCNC(=O)CNC(=O)CNC(=O)Cn3cc(C(=O)NC(=O)OCC)c(=O)[nH]c3=O)CC2)c(=O)[nH]c1=O", "assignedClass": "no (0)"}
{"structureAsSmiles": "CCOc1ccc(/C=C2\\N=C(c3ccc([N+](=O)[O-])cc3)OC2=O)cc1", "assignedClass": "no (0)"}
{"structureAsSmiles": "CN(C)CC/C=C1\\c2ccccc2Sc2ccc(Cl)cc21", "assignedClass": "no (0)"}

----------
Parameter GI50: see the listing below.
# Test system: SK-MEL-28
# test: NCI tumour cell line growth inhibition, 48 h
Calls of active or inactive are those of the source. Rule as the data show it: active = GI50 up to about 1.1 µM and inactive = higher.
measureName: GI50

{"compound": "Cc1cccc(Nc2cc(Cl)nc(SCC(=O)O)n2)c1C [PIRINIXIC ACID]", "measuredResult": "> 100 µM (inactive)"}
{"compound": "CC(=O)OC1CC2C(C)(C)C(=O)C=CC2(C)C2CCC3(C)C(c4ccoc4)OC(=O)C4OC43C12C (stereo not given)", "measuredResult": "20.4 µM (inactive)"}
{"compound": "Brc1ccc(-c2nnc(-c3nn(-c4ccccc4)c4nc5ccccc5nc34)o2)cc1", "measuredResult": "> 100 µM (inactive)"}
{"compound": "COc1ccc(-c2c3c(nc4nc(SCC(=O)c5ccc(Br)cc5)nc(N)c24)CCCC3)cc1OC", "measuredResult": "64 µM (inactive)"}
{"compound": "O=c1ccn([C@@H]2C[C@H]2CO)c(=O)[nH]1", "measuredResult": "> 100 µM (inactive)"}

----------
# Test system: SR
# test: NCI tumour cell line growth inhibition, 48 h
Calls of active or inactive are those of the source. No stated cut-off is given here; in the data, active = GI50 up to about 1.1 µM and inactive = higher. Where a SMILES comes first, the peptide text is derived from it. The star is where a group is joined. Cbz = O=C(OCc1ccccc1)*
Labels: active, inactive

{"compound": "CCc1ccc(NCc2cc(OC)c(OC)c(OC)c2)cc1", "systemTested": "SR", "assignedClass": "active"}
{"compound": "O=C(CSc1nc2ccc(I)cc2c(=O)n1Cc1ccccc1)Nc1ccccc1", "systemTested": "SR", "assignedClass": "inactive"}
{"compound": "COC(=O)CCCCCOS(=O)(=O)c1ccc(C)cc1", "systemTested": "SR", "assignedClass": "inactive"}
{"compound": "COc1ccc(CN(O)C2C(CO)OC(n3cc(I)c(=O)[nH]c3=O)C2O)cc1 (configuration not stated)", "systemTested": "SR", "assignedClass": "inactive"}
{"compound": "CC(C)(C)OC(=O)N[C@H]1CC(O)c2ccccc2N(CC(=O)O)C1=O (some centres not stated)", "systemTested": "SR", "assignedClass": "inactive"}
{"compound": "C[C@]12CCC(=O)C=C1CC[C@@H]1[C@@H]2CC[C@]2(C)C(=O)/C(=C/c3ccncc3)C[C@@H]12", "systemTested": "SR", "assignedClass": "inactive"}
{"compound": "CCCCCCCCCCCC(=O)OCC1OC(OC)C(NC(=O)N(CCCl)N=O)C(O)C1O (configuration not stated)", "systemTested": "SR", "assignedClass": "inactive"}
{"compound": "CCOC(=O)CC(NC(=O)c1nc[nH]c1[N+](=O)[O-])C(=O)OCC (configuration not stated)", "systemTested": "SR", "assignedClass": "inactive"}
{"compound": "CC1(C)C2C=CC1(C)C1(CC2)OCCO1 (configuration not stated)", "systemTested": "SR", "assignedClass": "inactive"}
{"compound": "COC(=O)/C=C\\Sc1ccn(/C=C\\C(=O)OC)c(=S)n1", "systemTested": "SR", "assignedClass": "inactive"}
{"compound": "COc1cc2c(cc1OC)C1(c3ccccc3)ON=C(c3ccccc3)N1CS2 (configuration not stated)", "systemTested": "SR", "assignedClass": "inactive"}
{"compound": "O=C(Nc1cccc(-c2cn3ccccc3n2)c1)c1ccncc1", "systemTested": "SR", "assignedClass": "inactive"}
{"compound": "CC(=O)NC(CCCNC(=O)N(CCCl)N=O)C(=O)NCc1ccccc1 (configuration not stated)", "systemTested": "SR", "assignedClass": "inactive"}
{"compound": "Clc1ccc(Cc2nc3cc(Cl)ccc3o2)cc1", "systemTested": "SR", "assignedClass": "inactive"}
{"compound": "CC(=O)Oc1c(-c2ccccc2)sc2ccccc12", "systemTested": "SR", "assignedClass": "inactive"}
{"compound": "COc1ccccc1Cn1[nH]c(=O)c2cc([N+](=O)[O-])ccc21", "systemTested": "SR", "assignedClass": "inactive"}
{"compound": "CC(C)CC(=O)CC(O)C(Cl)(Cl)Cl (configuration not stated)", "systemTested": "SR", "assignedClass": "inactive"}
{"compound": "Cc1cc(N(CCOS(C)(=O)=O)CCOS(C)(=O)=O)ccc1/C=N/c1ccc(-c2csc(-c3ccccc3)n2)c(Cl)c1", "systemTested": "SR", "assignedClass": "inactive"}
{"compound": "NC(=O)c1c2c(n3ccccc13)C(=O)c1ccccc1C2=O", "systemTested": "SR", "assignedClass": "inactive"}
{"compound": "COc1ccc(CNc2cc(OC)c(OC)c(OC)c2)cc1", "systemTested": "SR", "assignedClass": "inactive"}
{"compound": "Cc1nc(N)c(N2CCN([N+](=O)[O-])CC2)c(O)n1", "systemTested": "SR", "assignedClass": "inactive"}
{"compound": "CCOC(=O)CNC(=O)C(C)NC(=O)C(NC(=O)OCc1ccccc1)C(C)C (stereo not drawn) (Cbz-Val-Ala-Gly-OEt; configuration not given here)", "systemTested": "SR", "assignedClass": "inactive"}
